- Tested on: 233499-124-R-J3-PDC complex spheroid viability, % test/control
- MEASUREMENT PROTOCOL: Anticancer human tumor 233499-124-R-J3-PDC patient-derived colon adenocarcinoma cell line growth inhibition
- CONDITION DESCRIPTION: second compound 0.316 µM; first compound 0.949 µM; hits give low values
MEASUREMENT LABEL: viability, T/C (%)

>  <COMPOUND>
COc1cc(C2c3cc4c(cc3C(OC3OC5COC(C)OC5C(O)C3O)C3COC(=O)C23)OCO4)cc(OC)c1O (stereo not given) + NC1CC1c1ccc(-c2cccc(O)c2)cc1

>  <RECORDED VALUE>
51.5

$$$$
>  <COMPOUND>
O=C(C=Cc1cccc(S(=O)(=O)Nc2ccccc2)c1)NO + NC1CCC(NC2CC2c2ccccc2)CC1

>  <RECORDED VALUE>
47.7

$$$$
>  <COMPOUND>
NS(=O)(=O)OCC1CC(n2ccc3c(NC4CCc5ccccc54)ncnc32)CC1O (stereo not given) + NC1CCC(NC2CC2c2ccccc2)CC1

>  <RECORDED VALUE>
6.44

$$$$
>  <COMPOUND>
Nc1ccccc1NC(=O)c1ccc(CNC(=O)OCc2cccnc2)cc1 + NC1CCC(NC2CC2c2ccccc2)CC1

>  <RECORDED VALUE>
19.1

$$$$
>  <COMPOUND>
NS(=O)(=O)OCC1CC(n2ccc3c(NC4CCc5ccccc54)ncnc32)CC1O (stereo not given) + NC1CC1c1ccc(-c2cccc(O)c2)cc1

>  <RECORDED VALUE>
4.27

$$$$
>  <COMPOUND>
Nc1ccccc1NC(=O)c1ccc(CNC(=O)OCc2cccnc2)cc1 + NC1CC1c1ccc(-c2cccc(O)c2)cc1

>  <RECORDED VALUE>
11.3

$$$$
>  <COMPOUND>
COc1cc(C2c3cc4c(cc3C(OC3OC5COC(C)OC5C(O)C3O)C3COC(=O)C23)OCO4)cc(OC)c1O (stereo not given) + NC1CCC(NC2CC2c2ccccc2)CC1

>  <RECORDED VALUE>
89.9

$$$$
>  <COMPOUND>
O=C(C=Cc1cccc(S(=O)(=O)Nc2ccccc2)c1)NO + NC1CC1c1ccc(-c2cccc(O)c2)cc1

>  <RECORDED VALUE>
10.3

$$$$
>  <COMPOUND>
CCN(c1cc(-c2ccc(CN3CCOCC3)cc2)cc(C(=O)NCc2c(C)cc(C)[nH]c2=O)c1C)C1CCOCC1 + NC1CCC(NC2CC2c2ccccc2)CC1

>  <RECORDED VALUE>
118

$$$$
>  <COMPOUND>
CCN(c1cc(-c2ccc(CN3CCOCC3)cc2)cc(C(=O)NCc2c(C)cc(C)[nH]c2=O)c1C)C1CCOCC1 + NC1CC1c1ccc(-c2cccc(O)c2)cc1

>  <RECORDED VALUE>
98.5

$$$$

====

- System: 233499-124-R-J3-PDC complex spheroid viability, % test/control
- MEASUREMENT PROTOCOL: Anticancer human tumor 233499-124-R-J3-PDC cell line growth inhibition;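 note: spheroids exposed to agents for one week before readout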
- CONDITION DESCRIPTION: second compound 0.1 µM; first compound 0.1 µM; hits give low values
viability, T/C values by entry

>  <COMPOUND>
CC(C)CC(NC(=O)C(Cc1ccccc1)NC(=O)c1cnccn1)B(O)O (stereo not given) + NC1CC1c1ccc(-c2cccc(O)c2)cc1

>  <viability, T/C>
0.23%

$$$$
>  <COMPOUND>
O=C(C=Cn1cnc(-c2cc(C(F)(F)F)cc(C(F)(F)F)c2)n1)NNc1cnccn1 + NC1CC1c1ccc(-c2cccc(O)c2)cc1

>  <viability, T/C>
101%

$$$$
>  <COMPOUND>
Cn1ncnc1C1c2n[nH]c(=O)c3cc(F)cc(c23)NC1c1ccc(F)cc1 (stereo not given) + NC1CCC(NC2CC2c2ccccc2)CC1

>  <viability, T/C>
77.8%

$$$$
>  <COMPOUND>
Nc1ncn(C2CC(O)C(CO)O2)c(=O)n1 (stereo not given) + NC1CC1c1ccc(-c2cccc(O)c2)cc1

>  <viability, T/C>
81.2%

$$$$
>  <COMPOUND>
CC1COCCN1c1cc(C2(S(C)(=N)=O)CC2)nc(-c2ccnc3[nH]ccc23)n1 (stereo not given) + NC1CC1c1ccc(-c2cccc(O)c2)cc1

>  <viability, T/C>
98.1%

$$$$
